Cited source: ChEMBL document CHEMBL2380247

System: NUGC-3
procedureText: Antiproliferative activity against human NUGC3 cells at 1 uM by SRB assay
Format: functional
quantity: growth, % of control at 1 µM (%)
Report as a plain number; the unit % is understood.

Solved entries (count: 4):
CCCCCCCCCCCCCCCC(=O)N(C)CCC[N+](C)(C)C; 4.68
CCCCCCCCCCCCCC(=O)N(C)CCC[N+](C)(C)Cc1ccccc1; 43.8
CCCCCCCCCCCCCC(=O)N(C)CC[N+](CC)(CC)CC; 3
C=CC[N+](CC)(CC)CCN(C)C(=O)CCCCCCCCCCCCCCC; 22.9

--- query ---
# growth, % of control at 1 µM (compound: CCCCCCCCCCCCCCCCCC(=O)NCC(C)(C)C[N+](C)(C)C ) is 46.7

* * *

Test system: HCT-15
procedureText: Antiproliferative activity against human HCT15 cells at 0.3 uM by SRB assay
Type: functional
quantity: growth, % of control at 0.3 µM

CCCCCCCCCCCCCCCCCC(=O)NCCC[N+](C)(C)C; 86.5%
C=CC[N+](CC)(CC)CCN(C)C(=O)CCCCCCCCCCCCCCC; 87.9%
CCCCCCCCCCCCCC(=O)N(C)CCC[N+](C)(C)C; 90.9%
CCCCCCCCCCCCCCCC(=O)N(C)CC[N+](C)(C)C; 102%
C=CC[N+](CC)(CC)CCN(C)C(=O)CCCCCCCCCCCCC; 96.8%

The recorded growth, % of control at 0.3 µM for CCCCCCCCCCCCCCCC(=O)NCC(C)(C)C[N+](C)(C)CC is 103%

The reported value for CCCCCCCCCCCCCCCCCC(=O)NCC(C)(C)C[N+](C)(C)C in terms of growth, % of control at 0.3 µM is 91.8%

growth, % of control at 0.3 µM reported for this compound CCCCCCCCCCCCCCCCCC(=O)NCC(C)(C)C[N+](C)(C)Cc1ccccc1 : 102%

* * *

Tested on: NCI-H23
procedureText: Antiproliferative activity against human NCI-H23 cells at 0.3 uM by SRB assay
Assay type: functional
Lab note: anything with growth, % of control at 0.3 µM below 90% is marked 1; values at 90% or higher are marked -1.

Please review the following examples before continuing.
C=CC[N+](C)(C)CCCN(C)C(=O)CCCCCCCCCCCCCCC; -1
CCCCCCCCCCCCCCCC(=O)N(C)CCC[N+](C)(C)C; -1
C=CC[N+](CC)(CC)CCN(C)C(=O)CCCCCCCCCCCCC; 1
C=CC[N+](C)(C)CC(C)(C)CNC(=O)CCCCCCCCCCCCCCCCC; -1

--- query ---
Prompt: Hi there! Is growth, % of control at 0.3 µM for CCCCCCCCCCCCCC(=O)N(C)CC[N+](C)(C)C below 90%, do you know?
Completion: 1

* * *

Test system: PC-3
procedureText: Antiproliferative activity against human PC3 cells at 0.3 uM by SRB assay
Assay type: functional
quantity: growth, % of control at 0.3 µM
Field note: include the unit after the figure.

Example compounds with recorded growth, % of control at 0.3 µM:
C=CC[N+](C)(C)CC(C)(C)CNC(=O)CCCCCCCCCCCCCCCCC; 91%
C=CC[N+](CC)(CC)CCN(C)C(=O)CCCCCCCCCCCCCCC; 81.8%
C=CC[N+](C)(C)CCCN(C)C(=O)CCCCCCCCCCCCC; 82.3%

The compound CCCCCCCCCCCCCCCC(=O)N(C)CC[N+](C)(C)C on PC-3: growth, % of control at 0.3 µM was 87.9%

The compound CCCCCCCCCCCCCCCCCC(=O)N(C)CC[N+](C)(C)C , tested on PC-3, showed growth, % of control at 0.3 µM of 91.9%

Entry CCCCCCCCCCCCCCCC(=O)N(C)CC[N+](CC)(CC)Cc1ccccc1 ; assay system PC-3; growth, % of control at 0.3 µM recorded at 80.4%

Tested on PC-3: CCCCCCCCCCCCCCCC(=O)NCCC[N+](C)(C)C . Observed growth, % of control at 0.3 µM: 85.2%
